Provenance of the data: paper PMC7321210

Test system: laccase
ASSAY_PROTOCOL: Laccase amperometric biosensor: IC50 and type of inhibition
Type: biochemical
EXPERIMENTAL_SETUP: Lineweaver-Burk plot; biosensor exposed 30 min to twice the lowest inhibiting concentration
ATTRIBUTE_MEASURED: Type of Inhibition Laccase

Before answering, review these 6 worked examples.
1. CCOC(=O)/C=C/c1cc(OC)c(O)c(-c2cc(/C=C/C(=O)OCC)cc(OC)c2O)c1; competitive
2. COc1cc(/C=C/C(=O)c2ccc(OC)c(OC)c2)ccc1O; mixed
3. COc1cc(/C=C/C(=O)C[C@@H]2O[C@H](CO)[C@@H](O)[C@H](O)[C@H]2O)ccc1O; competitive
4. COc1cc(/C=C/C(=O)c2ccccc2)ccc1O; competitive
5. COc1cc(/C=C/C(=O)c2cc(OC)c(OC)c(-c3cc(C(=O)/C=C/c4ccc(O)c(OC)c4)cc(OC)c3OC)c2)ccc1O; mixed
6. COc1cc(C(=O)/C=C/c2ccc(OC)c(OC)c2)ccc1O; competitive

Let us move to another entry and its Type of Inhibition Laccase.
Any idea what Type of Inhibition Laccase was measured for `OC[C@H]1O[C@@H](Oc2ccc(-c3ccc(O)c(Br)c3)cc2Br)[C@H](O)[C@@H](O)[C@@H]1O` ?
competitive

* * *

ASSAY_SYSTEM: tyrosinase (Agaricus bisporus, UniProt C7FF04)
Sequence (C7FF04 2-392): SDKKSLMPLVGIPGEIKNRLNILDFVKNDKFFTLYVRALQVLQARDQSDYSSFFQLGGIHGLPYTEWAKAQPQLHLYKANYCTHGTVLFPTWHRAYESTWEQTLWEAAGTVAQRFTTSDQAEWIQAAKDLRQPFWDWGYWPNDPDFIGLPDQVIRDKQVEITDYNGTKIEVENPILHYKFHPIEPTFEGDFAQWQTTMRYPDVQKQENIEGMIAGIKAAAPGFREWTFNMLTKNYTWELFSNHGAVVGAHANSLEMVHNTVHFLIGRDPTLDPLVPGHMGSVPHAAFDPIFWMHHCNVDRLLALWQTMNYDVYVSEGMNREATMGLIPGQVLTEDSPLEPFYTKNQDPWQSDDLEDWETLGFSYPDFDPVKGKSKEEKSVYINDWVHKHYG
ASSAY_PROTOCOL: Tyrosinase amperometric biosensor: IC50 and type of inhibition;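 also: Carbon-composite amperometric tyrosinase biosensors with polyurethane-entrapped enzyme, calibrated in a three-electrode cell against Ag/AgCl at room temperature, before versus after inhibitor exposure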
Type: biochemical
EXPERIMENTAL_SETUP: dopamine calibration 0-140 mM after inhibitor exposure; n=4 biosensors
ATTRIBUTE_MEASURED: VMAX, substrate + inhibitor, TYR (nA)

Known VMAX, substrate + inhibitor, TYR results, listed for orientation:
1) COc1cc(/C=C/C(=O)c2ccc(OC)c(OC)c2)ccc1O [Compound 11]; 33.0
2) OC[C@H]1O[C@@H](Oc2ccc(-c3ccc(O)cc3)cc2)[C@H](O)[C@@H](O)[C@@H]1O [Compound 18]; 145.8
3) COc1cc(/C=C/C(=O)c2cc(OC)c(OC)c(-c3cc(C(=O)/C=C/c4ccc(O)c(OC)c4)cc(OC)c3OC)c2)ccc1O [Compound 14]; 48.8

A. COc1cc(C(=O)/C=C/c2ccc(OC)c(OC)c2)ccc1O [Compound 12]
B. COc1cc(/C=C/C(=O)C[C@@H]2O[C@H](CO)[C@@H](O)[C@H](O)[C@H]2O)ccc1O [Compound 13]
C. CC(=O)CCc1ccc(O)c(O)c1 [Compound 9]
Would you mind ranking these compounds by ascending VMAX, substrate + inhibitor, TYR? // rank by listing labels in the order requested
B, A, C

* * *

Tested on: PC12 cells
ASSAY_PROTOCOL: Viability of PC12 cells (MTT assay)
Assay type: cell-based, rat
EXPERIMENTAL_SETUP: significant (p < 0.05) decrease in viability vs control, from 5 μM up to 40 μM
ATTRIBUTE_MEASURED: toxicity to cells in words

Solved cases below.
1) COc1cc(C(=O)/C=C/c2cc(OC)c(OC)c(-c3cc(/C=C/C(=O)c4ccc(O)c(OC)c4)cc(OC)c3OC)c2)ccc1O; toxic to cells
2) COc1ccc(O)c(C(=O)/C=C/c2cc(OC)c(OC)c(-c3cc(/C=C/C(=O)c4cc(OC)ccc4O)cc(OC)c3OC)c2)c1; toxic to cells
3) COc1cc(C(=O)/C=C/c2ccc(OC)c(OC)c2)ccc1O; toxic to cells
4) COc1cc(/C=C/C(=O)c2ccc(OC)c(OC)c2)ccc1O; toxic to cells

Look up toxicity to cells in words: `COc1cc(/C=C/C(=O)c2cc(OC)c(OC)c(-c3cc(C(=O)/C=C/c4ccc(O)c(OC)c4)cc(OC)c3OC)c2)ccc1O`
toxic to cells

* * *

ASSAY_SYSTEM: UniProtKB C7FF04
ASSAY_PROTOCOL: Tyrosinase amperometric biosensor: IC50 and type of inhibition
Format: biochemical
EXPERIMENTAL_SETUP: dopamine calibration 0-140 mM after inhibitor exposure; n=4 biosensors
ATTRIBUTE_MEASURED: VMAX, substrate + inhibitor, TYR (nA)

The examples below pair each entry with its known result.
1. CC(C)=CCCC(C)(O)/C=C/c1cc(-c2ccc(O)c(/C=C/C(C)(O)CCC=C(C)C)c2)ccc1O (stereo not shown) [Compound 20]; 77.4
2. CCOC(=O)/C=C/c1cc(OC)c(O)c(-c2cc(/C=C/C(=O)OCC)cc(OC)c2O)c1 [Compound 17]; 73.7
3. CC(=O)C=Cc1ccc(O)cc1O [Compound 7, reference compound]; 114.1
4. COc1cc(/C=C/C(=O)c2ccccc2)ccc1O [Compound 10]; 31.5

1. COc1ccc(O)c(C(=O)/C=C/c2cc(OC)c(OC)c(-c3cc(/C=C/C(=O)c4cc(OC)ccc4O)cc(OC)c3OC)c2)c1 [Compound 16]
2. COc1cc(C(=O)/C=C/c2cc(OC)c(OC)c(-c3cc(/C=C/C(=O)c4ccc(O)c(OC)c4)cc(OC)c3OC)c2)ccc1O [Compound 15]
3. OC[C@H]1O[C@@H](Oc2ccc(-c3ccc(O)c(Br)c3)cc2Br)[C@H](O)[C@@H](O)[C@@H]1O [Compound 19]
Please rank these molecules by VMAX, substrate + inhibitor, TYR in descending order. Please reply with the labels ordered as requested. Many thanks.
3, 2, 1

* * *

ASSAY_SYSTEM: laccase
ASSAY_PROTOCOL: Laccase amperometric biosensor: IC50 and type of inhibition
EXPERIMENTAL_SETUP: enzyme immobilized on biosensor; dopamine 50 µM, PBS pH 6.0
pIC50: −log10 of the molar value.
ATTRIBUTE_MEASURED: pIC50

1. CC(C)=CCCC(C)(O)/C=C/c1cc(-c2ccc(O)c(/C=C/C(C)(O)CCC=C(C)C)c2)ccc1O (centres unmarked) [Compound 20]; 6.93
2. CC(=O)CCc1ccc(O)c(O)c1 [Compound 9]; 5.65
3. OC[C@H]1O[C@@H](Oc2ccc(-c3ccc(O)c(Br)c3)cc2Br)[C@H](O)[C@@H](O)[C@@H]1O [Compound 19]; 6.89
4. CCOC(=O)/C=C/c1cc(OC)c(O)c(-c2cc(/C=C/C(=O)OCC)cc(OC)c2O)c1 [Compound 17]; 6.74
5. COc1cc(C(=O)/C=C/c2cc(OC)c(OC)c(-c3cc(/C=C/C(=O)c4ccc(O)c(OC)c4)cc(OC)c3OC)c2)ccc1O [Compound 15]; 6.68
6. COc1cc(/C=C/C(=O)c2ccccc2)ccc1O [Compound 10]; 6.67
7. COc1cc(C(=O)/C=C/c2ccc(OC)c(OC)c2)ccc1O [Compound 12]; 5.98

P. COc1cc(C=CC(C)=O)ccc1O [Compound 8]
Q. COc1ccc(O)c(C(=O)/C=C/c2cc(OC)c(OC)c(-c3cc(/C=C/C(=O)c4cc(OC)ccc4O)cc(OC)c3OC)c2)c1 [Compound 16]
R. OC[C@H]1O[C@@H](Oc2ccc(-c3ccc(O)cc3)cc2)[C@H](O)[C@@H](O)[C@@H]1O [Compound 18]
S. COc1cc(/C=C/C(=O)c2ccc(OC)c(OC)c2)ccc1O [Compound 11]
Reorder the items by pIC50, least to greatest. Rank the items, then write their labels in that order.
R, Q, P, S
(R: 5.58, Q: 6.01, P: 6.66, S: 7.21)
